subject_of_test: L-type Ca2+ channel, dihydropyridine site (Rattus norvegicus, UniProt P22002+P27732+Q02485)
protocol: Percentage inhibition of [3H]nitrendipine binding to L-type [Ca2+] channel dihydropyridine site in rat cortical membranes at 2 uM (70-80 %)
Format: cell membranes, Membrane
experimental_context: probe [3H]nitrendipine
property_measured: inhibition at 2 µM (%)
Return type: number; implicit unit %.

For the molecule `CCCCc1oc2ccccc2c1C(=O)c1cc(I)c(OCCN(CC)CC)c(I)c1` , what inhibition at 2 µM is on record?
80

====

Target chain: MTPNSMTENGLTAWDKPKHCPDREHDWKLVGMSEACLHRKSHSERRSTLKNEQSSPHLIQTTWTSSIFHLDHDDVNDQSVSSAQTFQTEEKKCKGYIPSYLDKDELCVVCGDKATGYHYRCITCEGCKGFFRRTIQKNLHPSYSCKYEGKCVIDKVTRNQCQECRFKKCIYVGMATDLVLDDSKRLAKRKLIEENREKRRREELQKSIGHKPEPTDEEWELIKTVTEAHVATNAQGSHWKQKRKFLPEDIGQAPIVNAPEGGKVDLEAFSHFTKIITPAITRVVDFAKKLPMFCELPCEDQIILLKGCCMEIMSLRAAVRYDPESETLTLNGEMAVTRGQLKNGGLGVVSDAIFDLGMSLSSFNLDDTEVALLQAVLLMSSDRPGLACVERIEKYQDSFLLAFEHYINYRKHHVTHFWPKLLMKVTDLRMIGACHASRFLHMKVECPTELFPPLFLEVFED
property_measured: IC50 (µM)
Return type: number; implicit unit µM.

For the compound `Cc1oc2ccccc2c1Cc1cc(I)c(OCC(=O)O)c(I)c1` , what IC50 is on record?
5.1

====

Test system: CHO-K1
protocol: Antagonism of compound towards thyroid response element (TRAF beta) in CHO-K1 cells
experimental_context: Cricetulus griseus
# IC50 values compiled below

Reference set, count: 2
                                   molecule  assay_result
0  CCCCc1oc2ccccc2c1C(=O)c1cc(I)c(OCC(=O)O)c(I)c1       > 10 µM
1  Cc1oc2ccccc2c1C(=O)c1cc(I)c(OCC(=O)O)c(I)c1       > 10 µM

Consider the additional molecule presented here.
For the molecule `Cc1oc2ccccc2c1Cc1cc(I)c(OCC(=O)O)c(I)c1` , what IC50 is on record?
4.1 µM

Source of measurements: ChEMBL document CHEMBL1136014
